The values you see were collected from PubChem BioAssay.

# Procedure Summary: small-molecule microarray binders of probe aWnt5a, primary screen, biochemical, biotinylated probe, 635/667 nm fluorescence (AID 1113);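 also: score merges 667 nm fluorescence intensity with signal-to-noise per printed feature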
# Measurement Context: higher = more signal
Measured Parameter: composite z-score
// keep it numeric: no unit symbol after the value

Record excerpt, results attached:
- [N-]=[N+]=Nc1ccccc1[C@@H]1OC(c2ccc(OCCCO)cc2)=N[C@]1(CCS(=O)(=O)c1ccccc1)C(=O)NCCN1CCOCC1: 0.0814
- C[C@H]1C2=C3C(CC[C@H]4C(OCc5ccc(F)cc5C(F)(F)F)OC[C@](C)([C@@H]34)N(C(=O)OC(C)(C)C)C2)C2COC(=O)OCC21 (stereo not given in full): 0.0232
- CC(=O)n1cc(C(O)C2C=CC3C(=O)N(c4ccccc4)C(=O)C3N2Nc2ccccc2)c2ccccc21 (stereo not given): 0.13

Item C=CCOC(=O)[C@@H]1[C@H]2C(=O)O[C@H](c3ccccc3)[C@H](c3ccccc3)N2[C@H](c2ccc(OCCOC(=O)[C@H]3C[C@H]4C(=O)N[C@@H](CCCC[N+](C)(C)C)C(=O)N4[C@H]3c3ccc(O)cc3)cc2)[C@@]12C(=O)Nc1ccc(I)cc12 has what recorded composite z-score?
0.0101

Quick one: COCCOC(=O)N1C(=O)[C@@]2(c3cc(C#CCC(C(=O)OC)C(=O)OC)ccc31)[C@H](c1ccc(OCCO)cc1)N1[C@H](c3ccccc3)[C@H](c3ccccc3)OC(=O)[C@H]1[C@@H]2C(=O)N1CCN(c2ncccn2)CC1
-0.0236

Quick one: CCC[C@@H]1C[C@@]1(CCC)[C@@H](NP(=O)(c1ccccc1)c1ccccc1)c1ccc(Cl)cc1
-0.127

Quick one: COc1ccc(C(O)C2C=CC3C(=O)N(c4ccccc4)C(=O)C3N2Nc2ccc(C#N)cc2)c2ccccc12 (stereo not given)
0.0388

Quick one: COc1cc2c(cc1OC)CN(C(=O)[C@H]1[C@@H]3C(=O)O[C@@H](c4ccccc4)[C@@H](c4ccccc4)N3[C@@H](c3ccc(OCCO)cc3)[C@]13C(=O)Nc1ccc(C#CC4(O)CCCCCC4)cc13)CC2
-0.236

Quick one: CC(C)C(=C=CC[C@H](O)c1ccc(OCCO)cc1)C[C@H](O)c1cc(Cl)cc(Cl)c1O
-0.0125

Quick one: COC(=O)[C@@]1(Cc2ccc(OC)cc2)[C@H]2c3cc(C(=O)N(C)C)n(Cc4ccccc4)c3C[C@H]2CN1C(=O)c1ccccc1
-0.0681

Quick one: CC(=O)NCCCC[C@@H]1NC(=O)[C@@H]2C[C@H](C(=O)O)[C@H](c3ccc(O)cc3)N2C1=O
-0.184

Quick one: C[C@]1(C(=O)NC2CC2)c2ccccc2C(=O)N(Cc2ccc(OC(F)(F)F)cc2)[C@H]1c1ccc(CO)cc1
-0.0792

Quick one: CN1C(=O)[C@@]2(CCS(=O)(=O)c3ccccc3)N=C(c3ccc(OCCCO)cc3)O[C@H]2c2ccccc21
-0.176

Quick one: CC(C)N1CC=CC23O[C@@H]4C=CCCOC(=O)C4[C@H]2C(=O)N(CCO)[C@@H]3C1=O (stereo not given in full)
-0.224

Quick one: C=CC[C@@]1(C(=O)O)N=C(c2ccc(OCCCO)cc2)O[C@@H]1c1ccccc1
0.499

----------
# Procedure Summary: A549 cell viability effects, profiling panel, calcein-AM fluorescence, 48 h, basal (AID 1162); also: test concentration not given here
# Measurement Context: higher = more signal
Items are presented alongside their recorded z-score.

Record excerpt, results attached:
- COC(=O)Cn1c(C(=O)N2CCCC2)cc2c1C[C@H]1CN(C(=O)c3ccccc3)[C@@](Cc3ccc(F)cc3)(C(=O)OC)[C@@H]21: 1.13
- Cc1ccc(S[C@]2(C(=O)NCC(F)(F)F)CC(=O)N(Cc3ccccc3)[C@@H]2c2ccc(CO)cc2)cc1: 0.149
- COC(=O)C1(Cc2ccccc2)C=C2C(=C(C(C)C)C(=O)C2C)CN1 (stereo not drawn): -0.859

Item O=C1O[C@@H](c2ccccc2)[C@@H](c2ccccc2)N2[C@@H](c3ccc(O)cc3)[C@]3(C(=O)Nc4ccc(C#CC5=CCCCC5)cc43)[C@@H](C(=O)N3CCN(c4ncccn4)CC3)[C@H]12 has what recorded z-score?
-1.9

Quick one: COc1ccc([Si](C)(C)[C@H]2[C@H](CCO)O[C@@]3(C(=O)N(Cc4cccc(N5CCCCC5=O)c4)c4ccccc43)[C@@H]2C)cc1
-1.38

Quick one: COC(=O)[C@H](Cc1ccccc1)N1CC(/C=C/C2CC2)=C[C@@H]1[C@@H](O)Cc1ccccc1
0.56

Quick one: COc1ccc([Si](C)(C)[C@H]2[C@H](CCn3cc(CCO)nn3)O[C@@]3(C(=O)N(Cc4ccc(N5C(=O)c6cccc7cccc5c67)cc4)c4ccccc43)[C@@H]2C)cc1
-1.61

Quick one: C=CCOC(=O)[C@@H]1[C@H]2C(=O)O[C@H](c3ccccc3)[C@H](c3ccccc3)N2[C@H](c2ccc(OCCOC(=O)[C@H]3C[C@H]4C(=O)N[C@@H](CCCCNC(C)=O)C(=O)N4[C@H]3c3cccc(OCCO)c3)cc2)[C@@]12C(=O)Nc1ccc(I)cc12
-0.596

----------
Items are presented alongside their recorded z-score.
# Procedure Summary: HepG2 cell viability effects, profiling panel, calcein-AM fluorescence, 48 h, basal (AID 1164); also: test concentration not given here
# Measurement Context: higher = more signal
// keep it numeric: no unit symbol after the value

• CN(C)CCCNC(=O)[C@@H]1c2ccccc2C(=O)N(CC23CC4CC(CC(C4)C2)C3)[C@H]1c1ccc(CO)cc1 = -0.99
• C=C(COC)/C(=C/C[C@@H](OC(=O)c1ccncc1)c1ccc(CO)o1)c1cnc2ccccc2c1 = -0.607
• O=C(CCCCCCC(=O)Nc1ccccc1)N/N=C/c1ccccc1 = -0.371
• CC(C)C[C@@H]1NC(=O)[C@H]2C[C@@H](C(=O)NCCCCCC[N+](C)(C)C)[C@@H](c3cccc(OCCO)c3)N2C1=O = 0.0659
• CCOC(=O)C[C@H]1[C@H](OC(=O)c2ccc(-c3ccccc3)cc2)[C@@H](NC(=O)c2ccc3ccccc3c2)c2cc(OCCCO)ccc2N1C(=O)c1ccc2ccccc2n1 = -0.573

Item CC(C)(C)OC(=O)CC[C@@]1(C(=O)O)N=C(c2ccc(OCCCO)cc2)O[C@@H]1c1ccccc1 has what recorded z-score?
-0.289

Quick one: CC1CC/C=C\[C@H]2OC34C=CCN(CCN5CCOCC5)C(=O)[C@H]3N(CCO)C(=O)[C@@H]4C2C(=O)O1 (some centres undefined)
-0.186

Quick one: O=C1NC(=O)C2C1C=CC(C(O)c1c(F)cccc1Cl)N2Nc1ccccn1 (centres undefined)
0.0038

Quick one: NC(=O)NCC#Cc1ccc2c(c1)[C@]1(C(=O)N2)[C@H](c2ccc(O)cc2)N2[C@H](c3ccccc3)[C@H](c3ccccc3)OC(=O)[C@H]2[C@@H]1C(=O)Nc1nc2ccccc2s1
0.157

----------
# Procedure Summary: small-molecule binders of probe aNOTCH2, primary screen, biochemical, small-molecule microarray, 635/667 nm fluorescence (AID 1121);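 also: score merges feature fluorescence read at 667 nm with its signal to noise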
# Measurement Context: higher = more signal
Record true whenever composite z-score is at -0.1 or higher; record false when lower.

Some entries whose results are on file:
- C=CCOC(=O)[C@@H]1[C@H]2C(=O)O[C@H](c3ccccc3)[C@H](c3ccccc3)N2[C@H](c2ccc(OCCOC(=O)[C@H]3C[C@H]4C(=O)N[C@@H](CCCCN(C)C)C(=O)N4[C@H]3c3cccc(OCCO)c3)cc2)[C@@]12C(=O)Nc1ccc(I)cc12: false
- COC(=O)Cn1c(C(=O)N2CCCC2)cc2c1C[C@H]1CN(C(=O)c3ccccc3)[C@@](Cc3ccc(F)cc3)(C(=O)OC)[C@@H]21: true
- COC(=O)[C@@]1(Cc2ccccc2)[C@H]2c3cc(C(=O)N4CCCC4)n(Cc4cc(F)cc5c4OCOC5)c3C[C@H]2CN1C(=O)c1ccccc1: true

For this compound, is measured composite z-score -0.1 or higher? NCCCCCCNC(=O)[C@H]1C[C@H]2C(=O)N[C@@H](Cc3ccccc3)C(=O)N2[C@H]1c1ccc(O)cc1
false

Quick one: COc1cc2c(cc1OC)CN(C(=O)[C@H]1[C@@H]3C(=O)O[C@@H](c4ccccc4)[C@@H](c4ccccc4)N3[C@@H](c3ccc(OCCO)cc3)[C@]13C(=O)Nc1ccc(C#CC4(O)CCCCCC4)cc13)CC2
false

Quick one: COCC(=C=CC[C@H](O)c1ccc(OCCO)cc1)C[C@H](O)COCc1ccccc1
false

Quick one: COCCOC(=O)N1C(=O)[C@@]2(c3cc(C#Cc4ccc(OC)cc4)ccc31)[C@H](C(=O)NC[C@H](O)c1ccccc1)[C@H]1C(=O)O[C@H](c3ccccc3)[C@H](c3ccccc3)N1[C@@H]2c1ccc(O)cc1
false

Quick one: CCOC(=O)C[C@H]1[C@H](OC(=O)c2ccc(-c3ccccc3)cc2)[C@@H](NC(=O)c2ccc3ccccc3c2)c2cc(OCCCO)ccc2N1C(=O)c1ccc2ccccc2n1
true

Quick one: NC(N)=NCc1cn(CCc2c[nH]c3ccccc23)nn1
false

Quick one: C=CC1c2cc(O)c(OC)cc2CCN1Cc1sc2ccccc2c1Cl (stereo unspecified)
true

Quick one: C=C(/C(=C/C[C@@H](OC(=O)c1ccncc1)c1ccc(OCCO)cc1)c1cc(C(=O)OC)ccc1OC)C(C)C
false
